Cited source for all entries: ChEMBL document CHEMBL1151697

- Tested System: UniProt:Q9JI35
- Sequence (Q9JI35 whole entry): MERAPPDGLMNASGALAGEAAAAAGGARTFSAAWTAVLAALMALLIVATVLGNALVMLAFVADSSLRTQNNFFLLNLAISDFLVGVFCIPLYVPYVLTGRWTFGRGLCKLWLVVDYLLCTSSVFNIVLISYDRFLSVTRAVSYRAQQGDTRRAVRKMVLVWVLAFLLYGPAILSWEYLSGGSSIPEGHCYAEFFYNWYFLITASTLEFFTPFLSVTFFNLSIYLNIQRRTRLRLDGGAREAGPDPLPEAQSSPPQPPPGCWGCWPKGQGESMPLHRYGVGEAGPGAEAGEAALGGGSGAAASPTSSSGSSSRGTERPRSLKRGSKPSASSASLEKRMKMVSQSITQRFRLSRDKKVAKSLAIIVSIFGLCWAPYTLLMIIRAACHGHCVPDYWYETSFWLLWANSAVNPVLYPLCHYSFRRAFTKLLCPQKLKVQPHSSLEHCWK
- Protocol Notes: Antagonist activity at histamine H3 receptor in electrically-stimulated guinea pig ileum assessed as inhibition of (R)-alpha-methylhistamine-induced twitch contraction in presence of 1 uM mepyramine
- Type: functional, tissue-based
Threshold rule: pKb greater than or equal to 8 is 1; below that, -1.

| Compound | Category |
| --- | --- |
| c1cc(-c2ccc(CN3CCCCC3)cc2)ccc1CN1CCCCC1 | 1 |
| CC1CCN(CCc2ccc(-c3ccc(CCN4CCC(C)CC4)cc3)cc2)CC1 | -1 |
| CC1CC(C)CN(Cc2ccc(-c3ccc(CN4CCCCC4)cc3)cc2)C1 (stereo not drawn) | 1 |
| CCCN(CCC)Cc1ccc(-c2ccc(CN3CCCCC3)cc2)cc1 | 1 |
| CC1CCN(Cc2ccc(-c3ccc(CN4CCCCC4)cc3)cc2)CC1 | 1 |
| c1cc(-c2ccc(CNC3CCCCC3)cc2)ccc1CNC1CCCCC1 | -1 |
| CN(C)Cc1ccc(-c2ccc(CN3CCCCC3)cc2)cc1 | 1 |
| c1cc(-c2ccc(CN3CCOCC3)cc2)ccc1CN1CCCCC1 | 1 |

Request: Hi team, for O=C1CCCCN1Cc1ccc(-c2ccc(CN3CCCCC3)cc2)cc1 , is the recorded pKb at or above 8?
Result: -1

Request: In plain terms: is recorded pKb at least 8 for c1cc(-c2ccc(CCN3CCCCC3)cc2)ccc1CCN1CCCCC1 ?
Result: 1

---

- Tested System: Histamine H3 receptor (Cavia porcellus)
- Protocol Notes: Antagonist activity at histamine H3 receptor in electrically-stimulated guinea pig ileum assessed as inhibition of (R)-alpha-methylhistamine-induced twitch contraction in presence of 1 uM mepyramine
- Format: functional, tissue-based
Readout: pKb
Please reply with the number alone, leaving off any unit.

Worked examples, 2 compounds total:
| Smiles Input | Tested System | pKb |
| --- | --- | --- |
| CCCN(CCC)Cc1ccc(-c2ccc(CCN3CCCCC3)cc2)cc1 | Histamine H3 receptor (Cavia porcellus) | 7.98 |
| CC(=O)N1CCN(Cc2ccc(-c3ccc(CN4CCCCC4)cc3)cc2)CC1 | Histamine H3 receptor (Cavia porcellus) | 7.79 |

Next compound, pKb to be filled in.
Request: Hi! What's the reported pKb for CN(C)CCc1ccc(-c2ccc(CCN(C)C)cc2)cc1 on Histamine H3 receptor (Cavia porcellus)?
Result: 8.04
